Measured Metric: melting point

Any idea what its melting point is? The compound is Cc1ccc(C)c(/C=C(\C#N)S(=O)(=O)Cc2ccc(Br)cc2)c1
124 to 128 °C

Others:
Any idea what its melting point is? The compound is COc1ccc(NS(=O)(=O)/C(C#N)=C/c2ccc(F)cc2)cc1
107 to 109 °C

Any idea what its melting point is? The compound is COc1cc(OC)c(OC)cc1/C=C(\C#N)S(=O)(=O)Cc1ccc(Cl)cc1Cl
164 to 170 °C

====

Recorded melting point for the following compounds

Below are worked cases with known answers.
Any idea what its melting point is? The compound is N#C/C(=C\c1ccccc1)S(=O)(=O)Cc1ccc(Cl)cc1
142 to 157 °C

Any idea what its melting point is? The compound is COc1ccc(NS(=O)(=O)/C(C#N)=C/c2ccccc2OCc2ccccc2)cc1
111 to 112 °C

Any idea what its melting point is? The compound is COc1ccc(CS(=O)(=O)/C(C#N)=C/c2ccc(F)c(N)c2)cc1
146 to 148 °C

Others:
Any idea what its melting point is? The compound is Cc1cc(C)cc(/C=C(\C(N)=O)S(=O)(=O)Cc2ccc(Cl)cc2)c1
172 to 176 °C

Any idea what its melting point is? The compound is N#C/C(=C\c1ccoc1)S(=O)(=O)Cc1ccc(Cl)cc1
150 to 154 °C
